B1: Zinc finger MYM-type protein 3, residues 405 to 444; numbered along this chain, Q14202 (parent)
chain: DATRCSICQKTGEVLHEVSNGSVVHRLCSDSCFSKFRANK

- Variants of: B1
- Protocol Description: abundance fitness (aPCA) (normalised: wild type 0, dead -1); higher = more abundant; growth selection in yeast, the domain comes from the species named
- Test Settings: Homo sapiens
We begin with a simple list: items and their reported abundance fitness.
The answer should be a number; do not append a unit.

Consider the worked cases shown below.
In [3]: df
Out[3]:
   variant_label  reported_endpoint  data_value
0           H25P  abundance fitness      -0.363
1           V14E  abundance fitness      -0.453
2           K40G  abundance fitness       0.211
3           V23D  abundance fitness       0.079
4            R4E  abundance fitness      -0.211

Input line: Given the entry A2K , report its measured abundance fitness.
Output line: 0.243

Input line: How about this variant: K10L
Output line: -0.273

Input line: And then K35N , what is it?
Output line: 0.03

Input line: Note, next up: I7D
Output line: -0.376

Input line: What about this variant? L27G
Output line: -0.331

Input line: Entry H16D please
Output line: -0.379
